# TARGET_OR_TEST_SYSTEM: soluble human FGFR2b protein (his tag, in-house generated) (human) (UniProt P21802)
# Sequence (P21802 other isoform, or with tags, fused parts or gaps limits assumed): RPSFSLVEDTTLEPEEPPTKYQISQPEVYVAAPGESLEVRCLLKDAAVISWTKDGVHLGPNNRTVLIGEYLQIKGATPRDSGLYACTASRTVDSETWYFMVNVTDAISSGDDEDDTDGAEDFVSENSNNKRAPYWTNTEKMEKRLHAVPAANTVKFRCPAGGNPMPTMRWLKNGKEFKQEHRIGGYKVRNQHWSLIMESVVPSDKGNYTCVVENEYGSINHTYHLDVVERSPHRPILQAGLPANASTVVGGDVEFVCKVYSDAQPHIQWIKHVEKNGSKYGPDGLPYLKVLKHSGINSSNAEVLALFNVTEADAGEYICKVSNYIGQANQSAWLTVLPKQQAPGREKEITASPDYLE
# METHOD_SUMMARY: SPR, antibody captured by anti-human Fc, human FGFR2b
READOUT_KIND: kon (M⁻¹ s⁻¹)
API: value field is a number in M⁻¹ s⁻¹; no unit string.

## Task Given the entry BGAh9239 (antibody, human IgG1, kappa, V domains shown) VH: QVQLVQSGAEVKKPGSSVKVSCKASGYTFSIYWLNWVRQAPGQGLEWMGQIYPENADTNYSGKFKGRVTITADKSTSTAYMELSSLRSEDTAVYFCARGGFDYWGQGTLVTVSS VL: DIQMTQSPSSLSASVGDRVTITCRASENIYSNLAWYQQKPGKAPKLLIYTATNLAEGVPSRFSGSGSGTDFTLTISSLQPEDFATYYCQHFYGILYTFGQGTRLEIKR , report its measured kon.
## Result 80500

From: patent US20250222125A1
